system tested: UniProt P35348
quantity: Ki (pM)
The figure you give is taken to be in pM; do not add the unit.

I would be grateful if you could share the reported Ki for COc1cccc(OC)c1OCCNCC1COc2ccccc2O1 (stereo not shown) [WB 4101] . 240

----------
system tested: Human recombinant FAP (Homo sapiens, UniProt Q12884)
Sequence (Q12884 whole entry): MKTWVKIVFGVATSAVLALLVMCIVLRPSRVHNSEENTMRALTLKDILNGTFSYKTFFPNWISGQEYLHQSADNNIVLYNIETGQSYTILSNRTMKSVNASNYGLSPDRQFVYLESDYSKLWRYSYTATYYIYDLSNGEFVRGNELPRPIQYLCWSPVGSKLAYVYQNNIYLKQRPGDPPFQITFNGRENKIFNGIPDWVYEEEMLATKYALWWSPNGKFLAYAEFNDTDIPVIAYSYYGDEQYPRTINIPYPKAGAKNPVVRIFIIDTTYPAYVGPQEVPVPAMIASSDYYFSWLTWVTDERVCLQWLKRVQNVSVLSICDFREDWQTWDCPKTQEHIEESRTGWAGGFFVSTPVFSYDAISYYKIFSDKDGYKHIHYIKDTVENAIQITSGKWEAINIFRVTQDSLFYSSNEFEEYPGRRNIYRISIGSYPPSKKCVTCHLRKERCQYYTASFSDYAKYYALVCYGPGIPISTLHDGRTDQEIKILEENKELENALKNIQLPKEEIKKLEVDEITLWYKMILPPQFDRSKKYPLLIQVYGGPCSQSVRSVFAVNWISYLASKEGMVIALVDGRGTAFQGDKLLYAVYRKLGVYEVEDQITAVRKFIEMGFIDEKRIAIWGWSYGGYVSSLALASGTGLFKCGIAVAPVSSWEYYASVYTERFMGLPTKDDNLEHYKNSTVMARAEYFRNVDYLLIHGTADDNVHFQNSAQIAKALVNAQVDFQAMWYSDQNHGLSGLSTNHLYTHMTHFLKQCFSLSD
assay method text: FRET-based FAP protease activity assay
Type: biochemical
Design: purchased R&D systems 3715-SE
assay context: pIC50 Category (Activity), recombinant human FAP, FRET substrate, 37° C.
Numbered stars: 1 amine (or outer) side, 2 acyl side, 3 side chain; on linkers, the order of the positions; unused ones are H or OH. Bridge positions count the residues as written; N and C are the ends. Square brackets hold non-standard residues; d marks the D form. Peptide text beside a SMILES is read from it. * marks the point of attachment. ξ: configuration not given here. TBMB(SCH2CH2NH-DOTA) = O=C(O)CN1CCN(CC(=O)O)CCN(CC(=O)NCCSCc2cc(C[*:1])cc(C[*:2])c2)CCN(CC(=O)O)CC1; X2 = O=C(O)CN1CCN(CC(=O)O)CCN(CC(=O)NCCCOCCOCCOCCCN*)CCN(CC(=O)O)CC1; mXylylene = c1cc(C[*:1])cc(C[*:2])c1; Suc = O=C(CCC(=O)[*:2])[*:1]; Nle = CCCC[C@H](N)C(=O)O; Hexanoyl = CCCCCC(=O)*; ξD = NC(CC(=O)O)C(=O)O
quantity: IC50

Here are 2 compounds together with their reported answers.
INSERT INTO measurements (compound, quantity, value) VALUES
  ('CCCCCC(=O)N[C@H]1CSCc2cccc(c2)CSC[C@@H](C(=O)N[C@@H](CC(=O)O)C(=O)N[C@@H](CCCNC(=N)N)C(=O)O)NC(=O)[C@H](Cc2ccccc2)NC(=O)[C@H](CCC(=O)O)NC(=O)[C@H]([C@@H](C)O)NC(=O)[C@@H]2CCCN2C(=O)[C@@H]2CCCN2C1=O [3BP-3299] (Hexanoyl-CPPTEFCDR-OH; linker 1-7 via mXylylene)', 'IC50', '< 10 nM'),
  ('CCCC[C@H](NC(=O)CCC(=O)NCCCOCCOCCOCCCNC(=O)CN1CCN(CC(=O)O)CCN(CC(=O)O)CCN(CC(=O)O)CC1)C(=O)N[C@H]1CSCc2cccc(c2)CSC[C@@H](C(=O)NC(CC(=O)O)C(N)=O)NC(=O)[C@H](Cc2ccccc2)NC(=O)[C@H](CCC(=O)O)NC(=O)[C@H]([C@@H](C)O)NC(=O)[C@@H]2CCCN2C(=O)[C@@H]2CCCN2C1=O (stereo partly drawn) [3BP-3320] ({X2-Suc}-[Nle]CPPTEFC[ξD]-NH2; linker 2-8 via mXylylene)', 'IC50', '< 10 nM');

Shift focus to the following entry.
I would be grateful if you could share the reported IC50 for CCCCCC(=O)N[C@H]1CSCc2cc(CSCCNC(=O)CN3CCN(CC(=O)O)CCN(CC(=O)O)CCN(CC(=O)O)CC3)cc(c2)CSC[C@@H](C(=O)N[C@@H](CC(=O)O)C(N)=O)NC(=O)[C@H](Cc2ccccc2)NC(=O)[C@H](CCC(N)=O)NC(=O)[C@H]([C@@H](C)O)NC(=O)[C@@H]2CCCN2C(=O)[C@@H]2CCCN2C1=O [3BP-3426] (Hexanoyl-CPPTQFCD-NH2; linker 1-7 via TBMB(SCH2CH2NH-DOTA)) . < 10 nM

// provenance: patent US20220315554A1
